All figures here come from ChEMBL document CHEMBL3588764.

Molecular target: D(2) dopamine receptor (Homo sapiens, UniProt P14416)
Sequence (P14416 whole entry): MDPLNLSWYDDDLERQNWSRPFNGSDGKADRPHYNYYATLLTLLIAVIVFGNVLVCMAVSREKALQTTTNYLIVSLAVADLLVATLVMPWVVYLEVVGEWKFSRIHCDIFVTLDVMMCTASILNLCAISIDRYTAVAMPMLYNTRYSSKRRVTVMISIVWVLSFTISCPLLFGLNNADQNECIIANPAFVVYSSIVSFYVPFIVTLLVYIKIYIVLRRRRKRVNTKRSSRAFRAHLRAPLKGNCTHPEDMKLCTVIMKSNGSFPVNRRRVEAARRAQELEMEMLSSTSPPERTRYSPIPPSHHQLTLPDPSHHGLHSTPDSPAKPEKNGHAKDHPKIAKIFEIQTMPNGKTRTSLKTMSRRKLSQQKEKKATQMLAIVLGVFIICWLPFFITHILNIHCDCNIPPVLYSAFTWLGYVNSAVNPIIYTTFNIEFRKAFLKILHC
Experiment: Displacement of [3H]spiperone from human dopamine D2 long receptor expressed in CHO cell membranes
pKi: −log10 of the molar value.
Listed molecules paired with reported pKi

| smiles-entry | pKi |
| --- | --- |
| COc1ccccc1N1CCN(CCCCNC(=O)/N=N/c2cc(F)c(F)c(F)c2)CC1 | 8.18 |
| CCCN(CCNC(=O)/N=N/c1ccc(F)c(F)c1)C1Cc2ccccc2C1 | 8.41 |
| CCCN(CCCCNC(=O)/N=N/c1ccc(F)c(F)c1)C1Cc2ccccc2C1 | 7.60 |
| CCCN(CCCCNC(=O)/C=C/c1ccc(F)cc1)C1Cc2ccccc2C1 | 7.72 |
| COc1ccccc1N1CCN(CCCCNC(=O)/N=N/c2ccc(F)c(F)c2)CC1 | 8.12 |
| CCCN(CCNC(=O)/N=N/c1cc(F)c(F)c(F)c1)C1Cc2ccccc2C1 | 6.96 |
| CCCN(CCCCNC(=O)/N=N/c1cc(F)c(F)c(F)c1)C1Cc2ccccc2C1 | 7.40 |
| CCCN(CCNC(=O)/C=C/c1ccc(F)cc1)C1Cc2ccccc2C1 | 7.37 |
| CCCN(CCNC(=O)/N=N/c1ccc(F)cc1)C1Cc2ccccc2C1 | 8.30 |
| CCCN(CCCCNC(=O)/N=N/c1ccc(F)cc1)C1Cc2ccccc2C1 | 7.64 |
